Sourced from the Immune Epitope Database (IEDB)

# target.entity: HLA-A*24:02
# test.details: IEDB peptide-MHC binding, purified MHC/competitive/fluorescence; filed as Kd, often an IC50 or EC50 that approximates it; bounds were set here for any values at or beyond the usual limits of such assays
# reported.conditions: source organism: Corynebacterium glutamicum ATCC 13032
property: Kd

Incoming: Value lookup for Kd; key = `MSSAAHLLY`
Outgoing: ≥ 20 µM

====

# target.entity: HLA-B*15:42
# test.details: IEDB peptide-MHC binding, purified MHC/competitive/fluorescence; filed as Kd, often an IC50 or EC50 that approximates it; bounds were set here for any values at or beyond the usual limits of such assays
# reported.conditions: source organism: Brucella abortus S19
property: Kd

Incoming: // lookup Kd | system=HLA-B*15:42 | key= `YMRERLSDF`
Outgoing: ≥ 5 µM

====

# target.entity: HLA-B*27:05
# test.details: IEDB peptide-MHC binding, purified MHC/direct/fluorescence; filed as Kd, often an IC50 or EC50 that approximates it; bounds were set here for any values at or beyond the usual limits of such assays
# reported.conditions: source organism: Toxoplasma gondii
pKd: −log10 of the molar value.
property: pKd

Incoming: Value lookup for pKd; key = `AYMDRKSFK`
Outgoing: ≤ 4.70

====

# target.entity: HLA-A*02:01
# test.details: IEDB peptide-MHC binding, purified MHC/direct/fluorescence; filed as Kd, often an IC50 or EC50 that approximates it; bounds were set here for any values at or beyond the usual limits of such assays
# reported.conditions: source organism: Burkholderia mallei
property: Kd (µM)
Entry rule: numbers only, all in µM.

Incoming: Value lookup for Kd; key = `VLRGRHDAA`
Outgoing: 9.25

====

# target.entity: HLA-A*02:06
# test.details: IEDB peptide-MHC binding, purified MHC/competitive/radioactivity; filed as Kd, often an IC50 or EC50 that approximates it; bounds were set here for any values at or beyond the usual limits of such assays
# reported.conditions: source organism: Vaccinia virus WR
Entries and their log10 of Kd values follow.
Units before log transform: µM; reported quantity: Kd; transform: log10.

Worked cases, log10 of Kd given:
item_sequence=SLVYGIRCV property="log10 of Kd" quantitative_result=-0.77
item_sequence=HLTENNLYI property="log10 of Kd" quantitative_result=0.26
item_sequence=VIDRLPSET property="log10 of Kd" quantitative_result=0.56

Incoming: // lookup log10 of Kd | system=HLA-A*02:06 | key= `KTPVIVVPVI`
Outgoing: 0.28

Incoming: // lookup log10 of Kd | system=HLA-A*02:06 | key= `RQQLEDIFM`
Outgoing: -0.03

Incoming: // lookup log10 of Kd | system=HLA-A*02:06 | key= `GIADIRDKYM`
Outgoing: 0.25

Incoming: // lookup log10 of Kd | system=HLA-A*02:06 | key= `LVITYCLVT`
Outgoing: 0.90

Incoming: // lookup log10 of Kd | system=HLA-A*02:06 | key= `NIVTDLENRL`
Outgoing: 0.19

Incoming: // lookup log10 of Kd | system=HLA-A*02:06 | key= `TAIRAGYSI`
Outgoing: 0.89

Incoming: // lookup log10 of Kd | system=HLA-A*02:06 | key= `CLKNEGVSGL`
Outgoing: 1.15

Incoming: // lookup log10 of Kd | system=HLA-A*02:06 | key= `IMSMMNITRL`
Outgoing: -0.23

Incoming: // lookup log10 of Kd | system=HLA-A*02:06 | key= `ILYYGANGST`
Outgoing: 0.26

Incoming: // lookup log10 of Kd | system=HLA-A*02:06 | key= `CTFMIITSTK`
Outgoing: 1.13

Incoming: // lookup log10 of Kd | system=HLA-A*02:06 | key= `RVFKKIMSI`
Outgoing: -1.12

Incoming: // lookup log10 of Kd | system=HLA-A*02:06 | key= `STTGEWPLI`
Outgoing: 0.09

Incoming: // lookup log10 of Kd | system=HLA-A*02:06 | key= `LAELLEMKYA`
Outgoing: 0.39
